target: Inhibitor of nuclear factor kappa-B kinase subunit beta (Homo sapiens) (UniProt O14920); settings: at 1 µM;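 note: reported as mean inhibition, from the GSK PKIS screening set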
Sequence (O14920 whole entry): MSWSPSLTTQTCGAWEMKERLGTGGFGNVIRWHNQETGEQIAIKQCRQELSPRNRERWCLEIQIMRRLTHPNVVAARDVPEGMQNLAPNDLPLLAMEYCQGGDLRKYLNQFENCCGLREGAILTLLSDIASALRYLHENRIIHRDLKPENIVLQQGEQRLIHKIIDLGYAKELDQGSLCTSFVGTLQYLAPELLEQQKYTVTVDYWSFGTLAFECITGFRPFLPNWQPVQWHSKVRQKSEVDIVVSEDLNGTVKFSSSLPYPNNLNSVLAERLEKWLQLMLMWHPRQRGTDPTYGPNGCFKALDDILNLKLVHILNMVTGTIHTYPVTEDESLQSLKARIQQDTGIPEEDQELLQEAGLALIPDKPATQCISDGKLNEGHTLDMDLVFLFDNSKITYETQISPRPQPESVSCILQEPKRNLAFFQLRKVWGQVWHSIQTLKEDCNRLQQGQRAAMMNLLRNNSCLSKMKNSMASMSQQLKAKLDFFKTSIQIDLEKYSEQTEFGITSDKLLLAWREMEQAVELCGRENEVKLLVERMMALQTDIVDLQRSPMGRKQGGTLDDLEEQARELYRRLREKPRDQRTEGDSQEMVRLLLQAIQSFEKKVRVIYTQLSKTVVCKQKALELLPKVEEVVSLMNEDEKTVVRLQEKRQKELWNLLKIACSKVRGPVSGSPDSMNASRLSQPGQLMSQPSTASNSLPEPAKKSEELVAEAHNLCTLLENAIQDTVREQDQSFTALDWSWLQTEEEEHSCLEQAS
parameter: inhibition (%)
The figure you give is taken to be in %; do not add the unit.

Example entries begin here.
# compoundSmiles, unitAbbrev, testResult
data = [
    ("Cn1c(-c2nonc2N)nc2cnccc21", "%", 1.73),
    ("CS(=O)(=O)CCNCc1ccoc1-c1ccc2ncnc(Nc3ccc(OCc4ccccc4)cc3)c2c1", "%", 0.42),
    ("COc1ccc(-c2nn3ncccc3c2-c2ccnc(Nc3ccc(F)c(F)c3)n2)cc1", "%", 5.58),
    ("N#Cc1ccc2c(-c3ccnc(NC4CC4)n3)c(-c3ccc(F)cc3)nn2c1", "%", 0.5),
    ("CCN1CCC(C(=O)Nc2n[nH]c3nnc(-c4cccc(F)c4F)cc23)CC1", "%", -2.63),
    ("CCS(=O)(=O)c1ccc(OC)c(Nc2ncc(-c3cccc(C(C)=O)c3)o2)c1", "%", 5.04),
    ("CNC(=O)c1ncccc1Nc1nc(Nc2cc3c(cc2OC)CCCN3C(=O)CN(C)C)nc2[nH]ccc12", "%", -0.65),
    ("O=C(O[C@H]1CN[C@H](C#Cc2cc3ncnc(Nc4ccc5c(ccn5Cc5cc(F)ccc5F)c4)c3s2)C1)N1CCOCC1", "%", 9.24),
]

If you can, please state the reported inhibition value of CS(=O)(=O)Nc1ccc(-c2ccc3c(NC(=O)C4CC4)n[nH]c3c2)cc1 .
1.2

Please give the result for O=C(Nc1n[nH]c2nnc(-c3cccnc3)cc12)C1CC1 too.
1.04

Same question, CS(=O)(=O)Nc1ccc(-c2cc(-c3ccccc3)cc(C(N)=O)c2N)cc1 this time
27.4

Can you handle COc1cccc(Nc2nccc(-c3cnn4ncccc34)n2)c1 next?
27.1

Fc1cccc(COc2ccc(Nc3ncncc3C#Cc3ccccc3)cc2Cl)c1 , same question.
9.35

Please answer likewise for FC(F)(F)CNc1nccc(-c2cnn3ncccc23)n1
5.42

Same question for O=C(O[C@H]1CN[C@H](C#Cc2cc3ncnc(Nc4ccc5c(cnn5Cc5ccccc5)c4)c3s2)C1)N1CCOCC1 please.
-0.9

Follow-up entry: COc1cc(N2CCN(C(C)C)CC2)ccc1Nc1nc(Nc2cccc(F)c2C(=O)O)c2cc[nH]c2n1
8.91

Item: COC(=O)Nc1nc2ccc(Oc3ccc(NC(=O)Nc4cc(C(F)(F)F)ccc4F)cc3)cc2s1
-1.14

Now give it for OCCCNc1nccc(-c2c(-c3ccc(F)cc3)nn3cc(C(F)(F)F)ccc23)n1 too.
-0.39

Also check NS(=O)(=O)c1ccc(N/N=C2\C(=O)Nc3ccc(C(=O)NCc4ccncc4)cc32)cc1
5.23

Same question, CCn1c(-c2nonc2N)nc2cncc(C(=O)NCCNC)c21 this time
7.92

Values compiled from ChEMBL document CHEMBL1961873.
